Target: UniProt:P70536
Sequence (P70536 whole entry): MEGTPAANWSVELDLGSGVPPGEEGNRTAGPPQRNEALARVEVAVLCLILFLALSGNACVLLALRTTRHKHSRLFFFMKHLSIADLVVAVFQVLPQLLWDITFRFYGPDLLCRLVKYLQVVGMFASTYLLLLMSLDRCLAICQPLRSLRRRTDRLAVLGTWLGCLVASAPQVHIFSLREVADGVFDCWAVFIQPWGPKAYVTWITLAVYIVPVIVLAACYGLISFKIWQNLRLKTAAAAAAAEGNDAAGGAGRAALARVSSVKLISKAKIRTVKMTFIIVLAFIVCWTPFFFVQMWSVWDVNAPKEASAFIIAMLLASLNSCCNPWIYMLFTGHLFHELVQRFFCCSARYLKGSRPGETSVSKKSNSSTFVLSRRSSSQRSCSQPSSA
Test Readout: IC50 (nM)
Give bare numbers, in nM.

Below are worked cases with known answers.
CN[C@@H](CCS(C)(=O)=O)C(=O)N[C@H]1CC2CC[C@]1(CS(=O)(=O)N1CCN(c3ccccc3C)CC1)C2(C)C : 9.2
Cc1ccccc1N1CCN(S(=O)(=O)C[C@]23CCC(C[C@@H]2NC(=O)[C@H](CCS(C)(=O)=O)NC2CCCCC2)C3(C)C)CC1 : 15
Cc1ccccc1N1CCN(S(=O)(=O)C[C@]23CCC(C[C@@H]2NC(=O)[C@H](CCS(C)(=O)=O)N(C)C)C3(C)C)CC1 : 4.9

### Prompt Which IC50 is listed for Cc1ccccc1N1CCN(S(=O)(=O)C[C@]23CCC(C[C@@H]2NC(=O)[C@H](CCS(C)(=O)=O)NC2CCS(=O)(=O)CC2)C3(C)C)CC1 ?
### Response 1.4
